The reported numbers originate from patent US20200239543A1.

Molecular target: T1, mouse CD47 (mouse, UniProt Q61735 19-140, limits assumed)
T1 construct: also called mouse CD47 protein
T1 sequence (looked up): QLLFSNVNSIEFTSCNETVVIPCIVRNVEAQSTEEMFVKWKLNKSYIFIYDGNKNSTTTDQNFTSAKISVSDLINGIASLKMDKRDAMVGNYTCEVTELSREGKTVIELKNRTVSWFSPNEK
Assay: SPR (Biacore T100 and ProteOn XPR36)
Quantity kind: Kd (nM)
Give a bare numeral; the unit nM is implied.

{"columns": ["Binder", "Unit text", "Kd"],
 "data": [
  ["SIRP-α D1 variant polypeptide of SEQ ID NO: 198 (receptor) EEELQIIQPDKSVLVAAGETATLRCTITSLYPVGPIQWFRGAGPGRELIYNQREGPFPRVTTVSDTTKRNNMDFSIRIGAITPADAGTYYCVKFRKGSPDDVEFKSGAGTELSVRAKPS", "nM", 1.41],
  ["SIRP-α D1 variant polypeptide of SEQ ID NO: 206 (receptor) EEELQIIQPDKSVLVAAGETATLRCTITSLRPVGPIQWFRGAGPGRELIYNQRDGPFPRVTTVSDTTKRNNMDFSIRIGAITPADAGTYYCVKFRKGIPDDVEFKSGAGTELSVRAKPS", "nM", 0.288],
  ["SIRP-α D1 variant polypeptide of SEQ ID NO: 207 (receptor) EEELQIIQPDKSVLVAAGETATLRCTITSLYPVGPIQWFRGAGPGRELIYNQRDGPFPRVTTVSDTTKRNNMDFSIRIGAITPADAGTYYCVKFRKGSPDDVEFKSGAGTELSVRAKPS", "nM", 0.88]
]}

Exercise: Would you kindly share the measured Kd for SIRP-α D1 variant polypeptide of SEQ ID NO: 205 (receptor) EEELQIIQPDKSVLVAAGETATLRCTITSLRPVGPIQWFRGAGPGRELIYNQREGPFPRVTTVSDTTKRNNMDFSIRIGAITPADAGTYYCVKFRKGIPDDVEFKSGAGTELSVRAKPS ?
Key: 0.569
